For each record, write down the corresponding IC50.
target: human KDR protein in HEK-293 cells (Homo sapiens (Human)); test: KDR Cell Assay (phospho-KDR in HEK-293 cells expressing inducible KDR); format: cell-based; details: pKDR Cell HEK 10% FBS IC50, HEK-293 cells expressing inducible KDR, VEGF stimulated
Sequence (P35968 20-1356): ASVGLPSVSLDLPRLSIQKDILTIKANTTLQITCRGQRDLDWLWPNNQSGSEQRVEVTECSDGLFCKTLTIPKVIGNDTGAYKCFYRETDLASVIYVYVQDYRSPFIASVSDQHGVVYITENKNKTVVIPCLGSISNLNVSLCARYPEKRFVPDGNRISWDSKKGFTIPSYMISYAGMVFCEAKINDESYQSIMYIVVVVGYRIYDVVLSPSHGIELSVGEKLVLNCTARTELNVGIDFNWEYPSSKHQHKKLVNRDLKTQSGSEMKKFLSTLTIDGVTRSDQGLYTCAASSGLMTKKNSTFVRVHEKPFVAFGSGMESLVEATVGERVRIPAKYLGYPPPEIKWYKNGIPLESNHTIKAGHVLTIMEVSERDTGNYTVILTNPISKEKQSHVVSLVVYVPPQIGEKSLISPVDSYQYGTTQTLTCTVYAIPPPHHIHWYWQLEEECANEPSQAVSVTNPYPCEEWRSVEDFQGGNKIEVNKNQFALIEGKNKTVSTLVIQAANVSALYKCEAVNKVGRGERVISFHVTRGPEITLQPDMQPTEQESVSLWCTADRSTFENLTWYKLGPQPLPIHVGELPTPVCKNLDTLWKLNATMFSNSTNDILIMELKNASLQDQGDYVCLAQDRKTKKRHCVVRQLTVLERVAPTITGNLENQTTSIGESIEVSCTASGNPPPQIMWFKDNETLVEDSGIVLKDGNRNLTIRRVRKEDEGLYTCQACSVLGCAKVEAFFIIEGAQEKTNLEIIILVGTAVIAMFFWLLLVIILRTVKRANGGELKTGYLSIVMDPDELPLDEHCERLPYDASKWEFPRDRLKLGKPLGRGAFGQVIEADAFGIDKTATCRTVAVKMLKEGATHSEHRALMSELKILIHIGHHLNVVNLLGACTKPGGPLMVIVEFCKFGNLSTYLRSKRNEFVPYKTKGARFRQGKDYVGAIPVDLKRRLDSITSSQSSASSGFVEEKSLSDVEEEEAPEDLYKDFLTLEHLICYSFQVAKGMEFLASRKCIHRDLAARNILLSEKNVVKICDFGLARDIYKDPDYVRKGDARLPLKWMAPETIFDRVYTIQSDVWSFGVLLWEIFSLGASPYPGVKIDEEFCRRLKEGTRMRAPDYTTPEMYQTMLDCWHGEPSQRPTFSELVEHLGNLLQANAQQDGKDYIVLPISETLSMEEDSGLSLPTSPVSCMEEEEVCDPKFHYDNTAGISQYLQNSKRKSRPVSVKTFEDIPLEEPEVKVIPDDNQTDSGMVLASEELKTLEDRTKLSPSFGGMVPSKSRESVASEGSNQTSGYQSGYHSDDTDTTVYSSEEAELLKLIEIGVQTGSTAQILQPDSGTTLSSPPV
Where a name gives a salt, the structure may show the parent alone.
Number in nM, nothing else.

**Q:** Hello, I am looking for reported IC50 with human KDR protein in HEK-293 cells (Homo sapiens (Human)) for Cn1cc(-c2cc(-c3ccc(N4CCN(CCNC(=O)OC(C)(C)C)CC4)nc3)c3c(C#N)cnn3c2)cn1 [Example 506] . Could you help?
**A:** 212

**Q:** Hello, I am looking for reported IC50 with human KDR protein in HEK-293 cells (Homo sapiens (Human)) for Cn1cc(-c2cc(-c3ccc(N4CCN(CCOC(C)(C)C)CC4)nc3)c3c(C#N)cnn3c2)cn1 [Example 420] . Could you help?
**A:** 792

**Q:** Hello, I am looking for reported IC50 with human KDR protein in HEK-293 cells (Homo sapiens (Human)) for CN1CCCC2(CCN(c3ccc(-c4cc(-c5cnn(C)c5)cn5ncc(C#N)c45)cn3)CC2)C1 [Example 556] . Could you help?
**A:** 1900

**Q:** Hello, I am looking for reported IC50 with human KDR protein in HEK-293 cells (Homo sapiens (Human)) for Cn1cc(-c2cc(-c3ccc(N4CCN(Cc5cccc(Cl)c5)CC4)nc3)c3c(C#N)cnn3c2)cn1 [Example 455] . Could you help?
**A:** 464

**Q:** Hello, I am looking for reported IC50 with human KDR protein in HEK-293 cells (Homo sapiens (Human)) for Cn1cc(-c2cc(-c3ccc(C4CCCN(Cc5ccccc5)C4)nc3)c3c(C#N)cnn3c2)cn1 (stereo not drawn) [Example 581] . Could you help?
**A:** 671

**Q:** Hello, I am looking for reported IC50 with human KDR protein in HEK-293 cells (Homo sapiens (Human)) for Cc1cnn2cc(-c3cnn(C)c3)cc(-c3ccc(N4CCN(C(=O)[C@H](O)c5ccccc5)CC4)nc3)c12 [Example 652] . Could you help?
**A:** 1700

**Q:** Hello, I am looking for reported IC50 with human KDR protein in HEK-293 cells (Homo sapiens (Human)) for Cn1cc(-c2cc(-c3ccc(N4CCC5(CCNCC5)CC4)nc3)c3c(C#N)cnn3c2)cn1 [Example 539, dihydrochloride] . Could you help?
**A:** 1640

**Q:** Hello, I am looking for reported IC50 with human KDR protein in HEK-293 cells (Homo sapiens (Human)) for CC(C)n1cc(-c2cc(-c3ccc(N4CCN(Cc5ccccc5)CC4)nc3)c3c(C#N)cnn3c2)cn1 [Example 611] . Could you help?
**A:** 298

**Q:** Hello, I am looking for reported IC50 with human KDR protein in HEK-293 cells (Homo sapiens (Human)) for Cc1nn(C)cc1CN1CCN(c2ccc(-c3cc(-c4cnn(C)c4)cn4ncc(C#N)c34)cn2)CC1 [Example 440] . Could you help?
**A:** 1690

**Q:** Hello, I am looking for reported IC50 with human KDR protein in HEK-293 cells (Homo sapiens (Human)) for Cn1cc(-c2cc(-c3ccc(N4CCN(Cc5nccn5C)CC4)nc3)c3c(C#N)cnn3c2)cn1 [Example 437] . Could you help?
**A:** 1970

**Q:** Hello, I am looking for reported IC50 with human KDR protein in HEK-293 cells (Homo sapiens (Human)) for Cn1cc(-c2cc(-c3ccc(N4CCN(Cc5ccc(F)cc5)CC4)nc3)c3c(C#N)cnn3c2)cn1 [Example 424] . Could you help?
**A:** 630

**Q:** Hello, I am looking for reported IC50 with human KDR protein in HEK-293 cells (Homo sapiens (Human)) for Cn1cc(-c2cc(-c3ccc(N4CCN(Cc5cc(F)cc(F)c5)CC4)nc3)c3c(C#N)cnn3c2)cn1 [Example 447] . Could you help?
**A:** 668

**Q:** Hello, I am looking for reported IC50 with human KDR protein in HEK-293 cells (Homo sapiens (Human)) for COc1ccc(CN2CCN(c3ccc(-c4cc(-c5cnn(C[C@@H](C)O)c5)cn5ncc(C#N)c45)cn3)CC2)cn1 [Example 700] . Could you help?
**A:** 347

**Q:** Hello, I am looking for reported IC50 with human KDR protein in HEK-293 cells (Homo sapiens (Human)) for Cc1cc(CN2CCN(c3ccc(-c4cc(-c5cnn(C)c5)cn5ncc(C#N)c45)cn3)CC2)no1 [Example 436] . Could you help?
**A:** 536

**Q:** Hello, I am looking for reported IC50 with human KDR protein in HEK-293 cells (Homo sapiens (Human)) for Cn1cc(-c2cc(-c3ccc(N4CC5CCC(C4)N5Cc4ccccc4)nc3)c3c(C#N)cnn3c2)cn1 [Example 484] . Could you help?
**A:** 209

Hello, the source for this data is patent US10023570B2, in case you need it.
